Value source: patent US9708267B2

# Tgt: hPK, M2 (Homo sapiens, UniProt P14618)
# Sequence (P14618 whole entry): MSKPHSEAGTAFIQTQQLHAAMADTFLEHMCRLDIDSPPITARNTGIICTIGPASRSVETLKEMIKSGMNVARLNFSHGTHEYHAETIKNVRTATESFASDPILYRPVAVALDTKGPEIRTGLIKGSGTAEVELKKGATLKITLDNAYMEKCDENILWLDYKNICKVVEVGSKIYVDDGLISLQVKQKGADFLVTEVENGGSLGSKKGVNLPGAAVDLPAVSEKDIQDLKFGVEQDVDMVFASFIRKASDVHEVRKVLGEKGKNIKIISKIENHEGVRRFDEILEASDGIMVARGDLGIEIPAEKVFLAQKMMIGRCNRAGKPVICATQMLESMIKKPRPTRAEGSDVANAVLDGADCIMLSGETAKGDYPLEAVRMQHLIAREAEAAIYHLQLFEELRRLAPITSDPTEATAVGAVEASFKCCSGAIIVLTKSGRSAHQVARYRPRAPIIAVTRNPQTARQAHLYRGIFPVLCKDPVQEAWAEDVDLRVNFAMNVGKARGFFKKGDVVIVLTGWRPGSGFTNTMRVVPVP
# Protocol: luminescent pyruvate kinase-luciferase coupled assay (qHTS)
# Type: biochemical
# Test conditions: Table 4; 0.1 mM ADP, 0.5 mM PEP; read-out: AC50
Please respond with reported AC50 for every item in the list.
Note: unit nM is implicit; provide only the numeric part.

Challenge: Given the compound Cc1ccc(NS(=O)(=O)c2cc3c(cc2N2CCC(N(C)C)C2)NC(=O)CC3)cc1C (centres unmarked) [Compound 63] , write its reported AC50.
Response given: 8190

Challenge: Given the compound Cc1cc(NS(=O)(=O)c2ccc3c(c2)CCC(=O)N3)ccc1F [Compound 53] , write its reported AC50.
Response given: 370

Challenge: Given the compound Cc1ccc(NS(=O)(=O)c2cc3c(cc2Cl)CCC(=O)N3)cc1Cl [Compound 49] , write its reported AC50.
Response given: 650

Challenge: Given the compound Cc1ccc(NS(=O)(=O)c2cc3c(cc2N(C)CCN(C)C)NC(=O)CC3)cc1C [Compound 61] , write its reported AC50.
Response given: 5840

Challenge: Given the compound Cc1ccc(NS(=O)(=O)c2cc3c(cc2N2CCCC2)NC(=O)CC3)cc1C [Compound 62] , write its reported AC50.
Response given: 460
